Each recorded value in this set is attributed to patent US20240270821A1.

Tgt: human GLP-1R (SNAP-GLP-1R expressed in HEK293 cells) (human) (UniProt P43220)
Sequence (P43220 24-463): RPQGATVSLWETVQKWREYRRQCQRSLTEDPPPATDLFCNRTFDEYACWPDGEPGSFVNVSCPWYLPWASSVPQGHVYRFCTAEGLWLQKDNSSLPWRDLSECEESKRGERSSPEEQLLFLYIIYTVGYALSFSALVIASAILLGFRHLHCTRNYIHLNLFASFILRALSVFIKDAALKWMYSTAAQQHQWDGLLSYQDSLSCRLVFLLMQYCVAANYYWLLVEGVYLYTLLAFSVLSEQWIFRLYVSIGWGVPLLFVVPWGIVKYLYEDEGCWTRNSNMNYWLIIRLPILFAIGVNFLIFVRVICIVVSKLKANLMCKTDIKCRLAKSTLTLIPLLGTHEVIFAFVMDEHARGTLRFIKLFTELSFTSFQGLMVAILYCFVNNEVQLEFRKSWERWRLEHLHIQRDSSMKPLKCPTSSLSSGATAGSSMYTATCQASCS
Assay summary: cell-based or functional assay
Starred links: 1 amine or outer side, 2 acyl side, 3 side chain; linkers in the order of their positions; H or OH if unused. Non-standard residues stand in square brackets, D forms with d. Groups on a side chain read outwards from the residue. No end group written: not given here. *: point of attachment. C20 diacid = O=C(O)CCCCCCCCCCCCCCCCCCC(=O)*; C18 diacid = O=C(O)CCCCCCCCCCCCCCCCC(=O)*; αMePhe(2-F) = C[C@](N)(Cc1ccccc1F)C(=O)O; γGlu = O=C(O)[C@H](CCC(=O)[*:2])N[*:1]; αMeL = CC(C)C[C@](C)(N)C(=O)O; Dap = NC[C@H](N)C(=O)O; AEEA = NCCOCCOCC(=O)O; Aib = CC(C)(N)C(=O)O
Listed here are binders together with their documented GLP1R Internalization EC50.

Binder	Result value
YXQGTFTSDFSXXLDKKAQXAFIEWLLEGGPSSGAPPPSGS (synthetic construct; SITE 2: note = 2-Aminoisobutyric Acid; SITE 12: note = L-ornithine; SITE 13: note = alpha-methyl-leucine; SITE 17: note = Lysine is chemically modified through conjugation of the epsilon-amino group of the Lysine side chain with (2-[2-(2-Amino-ethoxy)-ethoxy]-acetyl)-(gamma-Glu)) [Example 168]	74.8 nM
YXQGTFTSDFSXXLDKKAQXAFIEYLLEXGHSSGAPPPSGS (synthetic construct; SITE 2: note = 2-Aminoisobutyric Acid; SITE 12: note = L-ornithine; SITE 13: note = alpha-methyl-leucine; SITE 17: note = Lysine is chemically modified through conjugation of the epsilon-amino group of the Lysine side chain with (2-[2-(2-Amino-ethoxy)-ethoxy]-acetyl)2-(gamma-Glu)) [Example 181]	116 nM
YXQGTFTSDFSXXLDKKAQXAFIEYLLEXGXSSGAPPPSGE (synthetic construct; SITE 2: note = 2-Aminoisobutyric Acid; SITE 12: note = L-ornithine; SITE 13: note = alpha-methyl-leucine; SITE 17: note = Lysine is chemically modified through conjugation of the epsilon-amino group of the Lysine side chain with (2-[2-(2-Amino-ethoxy)-ethoxy]-acetyl)2-(gamma-Glu)) [Example 189]	103 nM
YXQGTFTSDXSQXLDKKAQXAFIEYLIEXGESSGAPPPSGS (synthetic construct; SITE 2: note = 2-Aminoisobutyric Acid; SITE 10: note = 3-(4-Pyridyl)-L-alanine; SITE 13: note = alpha-methyl-leucine; SITE 17: note = Lysine is chemically modified through conjugation of the epsilon-amino group of the Lysine side chain with (2-[2-(2-Amino-ethoxy)-ethoxy]-acetyl)) [Example 226]	29.1 nM
YXQGTFTSDFSXXLDKKAQXAFIEYLLEGGXSSGAPPPGGS (synthetic construct; SITE 2: note = 2-Aminoisobutyric Acid; SITE 12: note = L-ornithine; SITE 13: note = alpha-methyl-leucine; SITE 17: note = Lysine is chemically modified through conjugation of the epsilon-amino group of the Lysine side chain with (2-[2-(2-Amino-ethoxy)-ethoxy]-acetyl)-(gamma-Glu)) [Example 163]	143 nM
YXQGTFTSDFSXXLDKKAQXAFIEWLLEGGHSSGAPPPSGT (synthetic construct; SITE 2: note = 2-Aminoisobutyric Acid; SITE 12: note = L-ornithine; SITE 13: note = alpha-methyl-leucine; SITE 17: note = Lysine is chemically modified through conjugation of the epsilon-amino group of the Lysine side chain with (2-[2-(2-Amino-ethoxy)-ethoxy]-acetyl)-(gamma-Glu)) [Example 171]	61.4 nM

Exercise: Param item = YXQGTFTSDFSXXLDKKAQXAFIEYLLEXGESSGAPPPSGS (synthetic construct; SITE 2: note = 2-Aminoisobutyric Acid; SITE 12: note = L-ornithine; SITE 13: note = alpha-methyl-leucine; SITE 17: note = Lysine is chemically modified through conjugation of the epsilon-amino group of the Lysine side chain with (2-[2-(2-Amino-ethoxy)-ethoxy]-acetyl)2-(gamma-Glu)) [Example 179] ; retrieve measured GLP1R Internalization EC50.
Key: 63.4 nM

Exercise: Param item = YXQGTFTSDFSXXLDKKAQXAFIEYLLEXGPSSGXPPPSGS (synthetic construct; SITE 2: note = 2-Aminoisobutyric Acid; SITE 12: note = L-ornithine; SITE 13: note = alpha-methyl-leucine; SITE 17: note = Lysine is chemically modified through conjugation of the epsilon-amino group of the Lysine side chain with (2-[2-(2-Amino-ethoxy)-ethoxy]-acetyl)-(gamma-Glu)) [Example 239] ; retrieve measured GLP1R Internalization EC50.
Key: 72.6 nM

Exercise: Param item = Y[Aib]QGTFTSDYS[Dap][αMeL]LDKK([AEEA-γGlu-C18 diacid])AQ[Aib]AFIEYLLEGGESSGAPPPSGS-NH2 [Example 360] ; retrieve measured GLP1R Internalization EC50.
Key: 214 nM

Exercise: Param item = YXQGTFTSDFSXXLDKKAQXAFIEYLLEAGPSSGAPPPSGT (not fully specified; synthetic construct; SITE 2: note = 2-Aminoisobutyric Acid; SITE 12: note = L-ornithine; SITE 13: note = alpha-methyl-leucine; SITE 17: note = Lysine is chemically modified through conjugation of the epsilon-amino group of the Lysine side chain with (gamma-Glu)3-CO-(CH2)16-CO2H; SITE 20: note = 2-Am) [Example 205] ; retrieve measured GLP1R Internalization EC50.
Key: 49.4 nM

Exercise: Param item = YXQGTFTSDFSXXLDKKAQXAFIEYLLEXGPSSGEPPPSGT (synthetic construct; SITE 2: note = 2-Aminoisobutyric Acid; SITE 12: note = L-ornithine; SITE 13: note = alpha-methyl-leucine; SITE 17: note = Lysine is chemically modified through conjugation of the epsilon-amino group of the Lysine side chain with (2-[2-(2-Amino-ethoxy)-ethoxy]-acetyl)2-(gamma-Glu)) [Example 167] ; retrieve measured GLP1R Internalization EC50.
Key: 75.9 nM

Exercise: Param item = Y[Aib]QGT[αMePhe(2-F)]TSDYSKLLDKIAQK([AEEA-γGlu-C20 diacid])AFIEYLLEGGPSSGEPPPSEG-NH2 [Example 295] ; retrieve measured GLP1R Internalization EC50.
Key: 31.4 nM
